From: patent US20260069588A1

- TEST: clinical
- CONDITION_NOTES: human, in vivo, 700 mg, AUCtau
METRIC_NAME: AUC

> print(dat)
                                   compound    assay.value
1  O=C1CC[C@H](N2Cc3cc(N4CCN(CC5CCN(c6ccc([C@@H]7c8ccc(O)cc8CC[C@@H]7c7ccccc7)cc6)CC5)CC4)ccc3C2=O)C(=O)N1 [Compound A]  19600 ng·h/mL

----------
- TEST: 3-month GLP oral toxicity study in rats
- Assay type: in vivo, rat
- CONDITION_NOTES: male, rat, in vivo, po, 300 mg/kg/day
METRIC_NAME: Cmax (ng/mL)

> print(dat)
                               entry.smiles  metric.name  assay.value
1  O=C1CC[C@H](N2Cc3cc(N4CCN(CC5CCN(c6ccc([C@@H]7c8ccc(O)cc8CC[C@@H]7c7ccccc7)cc6)CC5)CC4)ccc3C2=O)C(=O)N1         Cmax         4330

----------
- TEST: 3-month GLP oral toxicity study in rats
- Format: in vivo, rat
- CONDITION_NOTES: female, rat, in vivo, po, 300 mg/kg/day
METRIC_NAME: Cmax (ng/mL)

> print(dat)
                               entry.smiles  assay.value
1  O=C1CC[C@H](N2Cc3cc(N4CCN(CC5CCN(c6ccc([C@@H]7c8ccc(O)cc8CC[C@@H]7c7ccccc7)cc6)CC5)CC4)ccc3C2=O)C(=O)N1         3710

----------
Recorded half-life for the following molecules
- TEST: clinical
- CONDITION_NOTES: human, in vivo, 700 mg
METRIC_NAME: half-life

> print(dat)
                               entry.smiles  metric.name  assay.value
1  O=C1CC[C@@H](N2Cc3cc(N4CCN(CC5CCN(c6ccc([C@@H]7c8ccc(O)cc8CC[C@@H]7c7ccccc7)cc6)CC5)CC4)ccc3C2=O)C(=O)N1    half-life         52 h
2  O=C1CC[C@H](N2Cc3cc(N4CCN(CC5CCN(c6ccc([C@@H]7c8ccc(O)cc8CC[C@@H]7c7ccccc7)cc6)CC5)CC4)ccc3C2=O)C(=O)N1    half-life       12.4 h

----------
- TEST: 3-month GLP oral toxicity study in rats
- Format: in vivo, rat
- CONDITION_NOTES: rat, in vivo; male rats, 3 months oral
METRIC_NAME: NOAEL at 3 months (mg/kg/day)

> print(dat)
                               entry.smiles  assay.value
1  O=C1CC[C@H](N2Cc3cc(N4CCN(CC5CCN(c6ccc([C@@H]7c8ccc(O)cc8CC[C@@H]7c7ccccc7)cc6)CC5)CC4)ccc3C2=O)C(=O)N1          300

----------
- TEST: 3-month GLP oral toxicity study in dogs
- Assay type: in vivo, dog
- CONDITION_NOTES: Beagle, dog, plasma, po; male dogs, 90 mg/kg/day, Day 91
METRIC_NAME: Cmax (ng/mL)

> print(dat)
                               entry.smiles  unit.info  assay.value
1  O=C1CC[C@H](N2Cc3cc(N4CCN(CC5CCN(c6ccc([C@@H]7c8ccc(O)cc8CC[C@@H]7c7ccccc7)cc6)CC5)CC4)ccc3C2=O)C(=O)N1      ng/mL         4880
